Entry source: PubChem BioAssay AID1259407

Test system: CCRIS mutagenicity, Ames/micronucleus/aberration tests
procedure_text: CCRIS mutagenicity studies
experimental_conditions: Test System: AMES SALMONELLA TYPHIMURIUM; Strain/Indicator: TA97; Metabolic Activation: RAT, LIVER, S-9, AROCLOR 1254; Method: STANDARD PLATE
Activity calls are given as the source filed them. The rule behind the calls is not given here.
quantity_name: mutagenic call

Below, each entry is followed by its recorded mutagenic call result.
{"compound": "c1ccc(C(c2ccccc2)c2ccccc2)cc1", "quantity_name": "mutagenic call", "val": "inactive; negative"}
{"compound": "NN(c1ccccc1)c1ccccc1", "quantity_name": "mutagenic call", "val": "inactive; negative"}
{"compound": "Clc1cccnc1Cl", "quantity_name": "mutagenic call", "val": "active; positive"}
{"compound": "ClC(Cl)C(Cl)Cl", "quantity_name": "mutagenic call", "val": "active; positive"}
{"compound": "O=S(=O)(c1cc(Cl)cc(Cl)c1O)c1cc(Cl)cc(Cl)c1O", "quantity_name": "mutagenic call", "val": "inactive; negative"}
{"compound": "C[N+]1(C)CCOCC1", "quantity_name": "mutagenic call", "val": "inactive; negative"}
{"compound": "CCC(=O)Nc1ccc(Cl)c(Cl)c1", "quantity_name": "mutagenic call", "val": "inactive; negative"}
{"compound": "CSCCC(NC(=O)COc1cc(Cl)c(Cl)cc1Cl)C(=O)O (centres undefined)", "quantity_name": "mutagenic call", "val": "inactive; negative"}
{"compound": "N=c1c2ncn(C(c3ccccc3)c3ccccc3)c2ncn1O", "quantity_name": "mutagenic call", "val": "inactive; negative"}
{"compound": "CCC(CCC(C)=O)COC(=O)c1ccccc1C(=O)O (centres undefined)", "quantity_name": "mutagenic call", "val": "inactive; negative"}

Lookup: Form field: reported mutagenic call of Cc1ccc2nc3n(C)c4ccccc4c(C)c-3c2c1
Found: active; positive

Lookup: Given ClC(Cl)=C(c1ccc(Cl)cc1)c1ccc(Cl)cc1 , state its recorded mutagenic call.
Found: inactive; negative

Lookup: For the compound shown here, CSCC[C@H](NC(=O)COc1ccc(Cl)cc1Cl)C(=O)O , give the reported mutagenic call.
Found: inactive; negative

Lookup: Which measured mutagenic call value corresponds to Nc1ccc2nc3ccccn3c2n1 ?
Found: active; positive

====

Tested on: CCRIS mutagenicity, Ames/micronucleus/aberration tests
procedure_text: CCRIS mutagenicity studies
experimental_conditions: End Point: IN VITRO MICRONUCLEUS; Test System: V79 CELLS; Metabolic Activation: NONE
The source made the active and inactive calls. No rule for the calls is given here.
Pick one: active, inactive

Sample answers from the record:
{"compound": "c1ccc2[nH]c(-c3cscn3)nc2c1", "cat": "active"}
{"compound": "CN(Cc1cnc2nc(N)nc(N)c2n1)c1ccc(C(=O)N[C@@H](CCC(=O)O)C(=O)O)cc1", "cat": "inactive"}
{"compound": "CCCCC(CC)COC(=O)c1ccccc1C(=O)OCC(CC)CCCC (centres undefined)", "cat": "inactive"}

Lookup: Recorded call for COC1=CC(=O)C[C@@H](C)[C@]12Oc1c(Cl)c(OC)cc(OC)c1C2=O ?
Found: active

====

Test system: CCRIS mutagenicity, Ames/micronucleus/aberration tests
procedure_text: CCRIS mutagenicity studies
experimental_conditions: Test System: AMES SALMONELLA TYPHIMURIUM; Strain/Indicator: TA100; Metabolic Activation: RAT, LIVER, S-9, AROCLOR 1254; Method: STANDARD PLATE
The source made the active and inactive calls. The rule behind the calls is not given here.
Use one of these outcomes when replying: active, inactive

Worked examples follow.
{"compound": "CCCCCCCCCCCCCCCC(=O)OC/C=C(C)/C=C/C=C(C)/C=C/C1=C(C)CCCC1(C)C", "cat": "inactive"}
{"compound": "Nc1ccc(CCc2ccc(N)cc2)cc1", "cat": "active"}
{"compound": "c1ccc2cc3c(ccc4ccccc43)cc2c1", "cat": "active"}

Lookup: Please share the test call associated with O=C1CCc2ccc3ccc4ccccc4c3c21 .
Found: inactive

Lookup: Please state the recorded outcome for this compound: O=c1[nH][nH]c2ccccc12
Found: inactive

Lookup: Hi, sorry to bother you, what did the test record for Cc1cc(-c2ccccc2C)ccc1N ?
Found: active

====

Test system: CCRIS mutagenicity, Ames/micronucleus/aberration tests
procedure_text: CCRIS mutagenicity studies
experimental_conditions: Test System: AMES SALMONELLA TYPHIMURIUM; Strain/Indicator: TA102; Metabolic Activation: NONE; Method: STANDARD PLATE
The source made the active and inactive calls. The rule behind the calls is not given here.
Lab note: assign the record to one of TRUE (active), FALSE (inactive)

{"molecule": "O=S1OCC2C(CO1)C1(Cl)C(Cl)=C(Cl)C2(Cl)C1(Cl)Cl (centres undefined)", "cat": "FALSE"}

Lookup: In this assay, the call recorded for Cc1cc(C)c(C)cc1C was what?
Found: FALSE

Lookup: // param item: CCn1cc(C(=O)O)c(=O)c2cc3c(cc21)OCO3 ; yields the recorded call
Found: TRUE

Lookup: Any idea what this test logged for CCC(CCCC(=O)O)COC(=O)c1ccccc1C(=O)O (centres undefined) ?
Found: FALSE

Lookup: Fill in: this test's call for C1OC1C1CO1 (centres undefined) is ___
Found: TRUE

Lookup: Fill in: this test's call for C[n+]1ccc(-c2cc[n+](C)cc2)cc1 is ___
Found: FALSE

====

Tested on: CCRIS mutagenicity, Ames/micronucleus/aberration tests
procedure_text: CCRIS mutagenicity studies
experimental_conditions: Test System: MOUSE LYMPHOMA; Strain/Indicator: L5178Y (TK+/TK-); Metabolic Activation: NONE; Method: SUSPENSION/PLATE
Calls of active or inactive are those of the source. The rule behind the calls is not given here.
The reply should name one outcome from active, inactive

Solved cases (8 shown):
{"line_notation": "O=C1C=CC(=O)N1c1ccc(Cc2ccc(N3C(=O)C=CC3=O)cc2)cc1", "cat": "inactive"}
{"line_notation": "CCCCON=O", "cat": "active"}
{"line_notation": "Cc1ccc2nc(-c3ccc(N)cc3)sc2c1", "cat": "active"}
{"line_notation": "Nc1ccc([N+](=O)[O-])cc1N", "cat": "active"}
{"line_notation": "O=C/C=C/c1ccc([N+](=O)[O-])cc1", "cat": "active"}
{"line_notation": "CN(Cc1cnc2nc(N)nc(N)c2n1)c1ccc(C(=O)N[C@@H](CCC(=O)O)C(=O)O)cc1", "cat": "active"}
{"line_notation": "Cl[Si](Cl)(Cl)Cl", "cat": "inactive"}
{"line_notation": "CN1C[C@H](C(=O)N[C@]2(C)O[C@@]3(O)[C@@H]4CCCN4C(=O)[C@H](Cc4ccccc4)N3C2=O)C=C2c3cccc4[nH]cc(c34)C[C@H]21", "cat": "inactive"}

Next:
Lookup: Which outcome did this test record for the molecule O=[As]O ?
Found: active

====

System: CCRIS mutagenicity, Ames/micronucleus/aberration tests
procedure_text: CCRIS mutagenicity studies
experimental_conditions: Test System: AMES SALMONELLA TYPHIMURIUM; Strain/Indicator: TA97; Metabolic Activation: RAT, LIVER, S-9, AROCLOR 1254 (10%); Method: PREINCUBATION
Calls of active or inactive are those of the source. The rule behind the calls is not given here.
Entry note: the call must match one of active, inactive

{"compound": "CNc1ccc(O)cc1", "test_target": "CCRIS mutagenicity, Ames/micronucleus/aberration tests", "cat": "active"}
{"compound": "Clc1cccc(C(Cl)(Cl)Cl)n1", "test_target": "CCRIS mutagenicity, Ames/micronucleus/aberration tests", "cat": "inactive"}
{"compound": "CCN(CC)c1ccc(N=O)c(O)c1", "test_target": "CCRIS mutagenicity, Ames/micronucleus/aberration tests", "cat": "inactive"}
{"compound": "C[C@H](CCC(=O)O)[C@H]1CC[C@H]2[C@@H]3CC[C@@H]4C[C@H](O)CC[C@]4(C)[C@H]3CC[C@]12C", "test_target": "CCRIS mutagenicity, Ames/micronucleus/aberration tests", "cat": "inactive"}
{"compound": "FC(F)(F)c1ccccc1Cl", "test_target": "CCRIS mutagenicity, Ames/micronucleus/aberration tests", "cat": "inactive"}

Lookup: Any idea what this test logged for Nc1ccc2ccccc2c1N=Nc1ccc([N+](=O)[O-])cc1 ?
Found: active

Lookup: How did this test come out for OCCCCl ?
Found: inactive

Lookup: Please indicate how the test categorized CCCCC(CC)COCCCN (stereo unspecified) .
Found: inactive

Lookup: Entry Nc1ccc(Cl)cc1N : call = ?
Found: active

Lookup: Please state the recorded outcome for this compound: CCNc1cc(O)ccc1C
Found: inactive

Lookup: I'd appreciate the recorded outcome for Nc1ccccc1C(=O)OC/C=C/c1ccccc1 from this test.
Found: inactive

Lookup: I'd appreciate the recorded outcome for [CH3][Hg+] from this test.
Found: inactive

Lookup: // return assay outcome for CC(=O)Nc1ccc(N=Nc2cc(C)ccc2O)cc1
Found: active

====

Test system: CCRIS mutagenicity, Ames/micronucleus/aberration tests
procedure_text: CCRIS mutagenicity studies
experimental_conditions: Test System: AMES SALMONELLA TYPHIMURIUM; Strain/Indicator: TA100; Metabolic Activation: NONE; Method: PREINCUBATION
Activity calls are given as the source filed them. How the calls were made is not given here.
Outcomes you can answer with include only these: true = active, false = inactive

# example entries with known answers
{"molecule": "[O-][n+]1cc2cnccc2cn1", "cat": "false"}
{"molecule": "O=NN1CCSC1[C@H](O)[C@@H](O)[C@@H](O)CO (stereo not given in full)", "cat": "false"}
{"molecule": "CC(Br)CBr (stereo not given)", "cat": "false"}

Lookup: Which outcome was entered for the molecule Cl/C=C/Cl in this test?
Found: false

Lookup: Could you please tell me the result logged for Cc1cccs1 in this assay?
Found: false

Lookup: Please state the recorded outcome for this molecule: CCCCC[N+](=O)[O-]
Found: false

Lookup: Tell me the recorded outcome of this test for CCCCCCC(C)COC(=O)c1ccccc1C(=O)OCC(C)CCCCCC (stereo not given) .
Found: false

Lookup: Assay outcome for CN(C)c1ccc([C@H]2C[C@]3(C)[C@@H](CC[C@]3(O)CCCO)[C@@H]3CCC4=CC(=O)CCC4=C32)cc1 : what was it?
Found: false

Lookup: Which outcome was entered for the molecule ClC(Cl)(Cl)c1ccccc1 in this test?
Found: true

Lookup: GET /call?item= O=NN1CCOC(O)C1 (stereo not given) returns the recorded outcome of this test.
Found: true

Lookup: What is the recorded call for this molecule in the test? C=CCc1ccc2c(c1)OCO2
Found: false

Lookup: For this molecule, state the assay outcome: CCNc1cc(O)ccc1C
Found: false

Lookup: Could you please tell me the result logged for CC1CC(OC(=O)c2ccccc2O)CC(C)(C)C1 (stereo not given) in this assay?
Found: false

Lookup: For this molecule, state the assay outcome: c1ccoc1
Found: false

Lookup: Identify the outcome logged in this assay for the molecule shown: CCCCC(CC)COCCCN (stereo not given)
Found: false
